target: Enoyl-acyl carrier reductase (Toxoplasma gondii) (UniProt Q6UCJ9); experiment: Inhibition of Toxoplasma gondii enoyl reductase assessed as conversion of trans-2-acyl-ACP to acyl-ACP at 1 uM
Sequence (Q6UCJ9 as listed by the source): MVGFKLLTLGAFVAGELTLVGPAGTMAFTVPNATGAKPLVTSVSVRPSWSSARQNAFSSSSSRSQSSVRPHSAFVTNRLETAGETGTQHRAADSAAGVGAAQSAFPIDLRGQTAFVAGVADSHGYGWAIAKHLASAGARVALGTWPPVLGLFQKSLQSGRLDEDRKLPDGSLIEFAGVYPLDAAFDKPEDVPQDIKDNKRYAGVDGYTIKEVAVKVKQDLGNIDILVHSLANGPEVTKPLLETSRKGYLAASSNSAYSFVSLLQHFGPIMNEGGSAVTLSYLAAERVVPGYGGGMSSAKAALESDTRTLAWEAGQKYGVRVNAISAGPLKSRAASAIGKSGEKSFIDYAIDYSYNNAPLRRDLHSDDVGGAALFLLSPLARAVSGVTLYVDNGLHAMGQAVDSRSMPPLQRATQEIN
inhibition of 80% or higher: true. Under 80%: false.

Solved cases (10 shown):
# molecule.smiles, measured.target, category.label
rows = [
    ("Oc1cc(Cl)ccc1Oc1ccc(N2CCOCC2)cc1", "Enoyl-acyl carrier reductase (Toxoplasma gondii) (UniProt Q6UCJ9)", "false"),
    ("CCNC(=O)c1ccc(Oc2ccc(Cl)cc2O)s1", "Enoyl-acyl carrier reductase (Toxoplasma gondii) (UniProt Q6UCJ9)", "false"),
    ("O=C(c1ccc(Oc2ccc(Cl)cc2O)s1)N1CCNCC1", "Enoyl-acyl carrier reductase (Toxoplasma gondii) (UniProt Q6UCJ9)", "false"),
    ("Cc1cc(NC(=O)c2ccc(Oc3ccc(Cl)cc3O)o2)no1", "Enoyl-acyl carrier reductase (Toxoplasma gondii) (UniProt Q6UCJ9)", "true"),
    ("Cn1cc(C(=O)Nc2ccc(Cl)cc2O)c(C(F)(F)F)n1", "Enoyl-acyl carrier reductase (Toxoplasma gondii) (UniProt Q6UCJ9)", "false"),
    ("Oc1cc(Cl)ccc1Oc1ccc2ncccc2c1", "Enoyl-acyl carrier reductase (Toxoplasma gondii) (UniProt Q6UCJ9)", "true"),
    ("CC(=O)N1CCN(Cc2ccc(Oc3ccc(Cl)cc3O)s2)CC1", "Enoyl-acyl carrier reductase (Toxoplasma gondii) (UniProt Q6UCJ9)", "false"),
    ("CNC(=O)c1ccc(Oc2ccc(Cl)cc2O)o1", "Enoyl-acyl carrier reductase (Toxoplasma gondii) (UniProt Q6UCJ9)", "false"),
    ("Oc1cc(Cl)ccc1Oc1ccc(C(F)(F)F)cc1Cl", "Enoyl-acyl carrier reductase (Toxoplasma gondii) (UniProt Q6UCJ9)", "true"),
    ("CN1CCN(c2ccc(Oc3ccc(Cl)cc3O)cc2)CC1", "Enoyl-acyl carrier reductase (Toxoplasma gondii) (UniProt Q6UCJ9)", "false"),
]

-- ask API: above_or_equal(metric=inhibition, cutoff=80%) for item O=C(O)c1ccc(Oc2ccc(Cl)cc2O)s1
-- reply false

-- ask Kindly determine if inhibition recorded for CN1CCN(Cc2ccc(Oc3ccc(Cl)cc3O)cc2)CC1 is above or exactly 80%.
-- reply false

-- ask Does the compound Oc1cc(Cl)ccc1Oc1ccc2ccccc2c1 have recorded inhibition that is 80% or more?
-- reply true

-- ask Hi, just wondering whether CC(=O)N1CCN(C(=O)c2ccc(Oc3ccc(Cl)cc3O)o2)CC1 shows inhibition of 80% or higher.
-- reply false

-- ask I'd appreciate it if you could say whether CC(C)(C)OC(=O)N1CCN(C(=O)c2ccc(Oc3ccc(Cl)cc3O)s2)CC1 has inhibition at least equal to 80%.
-- reply false

====

target: Enoyl-acyl carrier reductase (Toxoplasma gondii) (UniProt Q6UCJ9); assay: Inhibition of Toxoplasma gondii enoyl reductase assessed as conversion of trans-2-acyl-ACP to acyl-ACP at 1 uM
inhibition values for the compounds below.
Note: unit % is implicit; provide only the numeric part.

Solved entries (count: 2):
# molecule.smiles, measured.target, inhibition [%]
rows = [
    ("O=S(=O)(c1ccc(Oc2ccc(Cl)cc2O)cc1)N1CCCCC1", "Enoyl-acyl carrier reductase (Toxoplasma gondii) (UniProt Q6UCJ9)", 81),
    ("O=C(O)c1ccc(Oc2ccc(Cl)cc2O)o1", "Enoyl-acyl carrier reductase (Toxoplasma gondii) (UniProt Q6UCJ9)", 79),
]

-- ask Could you tell me which inhibition is on file for O=S(=O)(c1ccc(Oc2ccc(Cl)cc2O)cc1)N1CCCC1 ?
-- reply 78

-- ask # input compound: CC(=O)N1CCN(c2ccc(Oc3ccc(Cl)cc3O)cc2)CC1 ; wanted: its inhibition
-- reply 81
